Below, each entry is listed alongside its reported MFI.
Target: SARS-CoV-2 Spike Protein (S1 Subunit, Fc Tag) (Sino 40591-V02H) (SARS-CoV-2, UniProt P0DTC2 16-685)
Test: Luminex, supernatant

Recorded results for 2 binders are shown here.
mAb10985 (antibody, V domains shown) VH: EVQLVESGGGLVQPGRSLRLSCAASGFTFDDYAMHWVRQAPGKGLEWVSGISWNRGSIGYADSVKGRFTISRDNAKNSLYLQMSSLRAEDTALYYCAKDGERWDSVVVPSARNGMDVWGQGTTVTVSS VL: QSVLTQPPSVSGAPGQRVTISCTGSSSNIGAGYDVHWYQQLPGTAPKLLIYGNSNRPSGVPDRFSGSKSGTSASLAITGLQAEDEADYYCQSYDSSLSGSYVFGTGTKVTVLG; 16200 MFI
mAb10939 (antibody, V domains shown) VH: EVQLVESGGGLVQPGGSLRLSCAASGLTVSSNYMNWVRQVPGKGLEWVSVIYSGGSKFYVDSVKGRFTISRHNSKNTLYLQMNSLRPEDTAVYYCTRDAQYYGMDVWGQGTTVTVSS VL: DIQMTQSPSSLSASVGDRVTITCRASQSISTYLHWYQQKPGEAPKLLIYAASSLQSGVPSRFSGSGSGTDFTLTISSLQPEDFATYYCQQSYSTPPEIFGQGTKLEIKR; 18200 MFI

We now examine a further binder.
Enquiry: Fill in: MFI of mAb10913 (antibody, V domains shown) VH: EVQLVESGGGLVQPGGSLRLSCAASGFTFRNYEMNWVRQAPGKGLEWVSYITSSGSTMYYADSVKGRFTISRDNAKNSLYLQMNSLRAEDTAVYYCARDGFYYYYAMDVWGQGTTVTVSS VL: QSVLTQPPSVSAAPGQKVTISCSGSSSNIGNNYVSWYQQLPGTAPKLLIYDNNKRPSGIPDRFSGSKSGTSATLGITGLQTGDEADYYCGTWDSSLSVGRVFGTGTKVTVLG is ___
Return: 18900 MFI
